# Target Under Test: BRAF^V600E (Homo sapiens, UniProt P15056, V600E)
# Sequence (P15056 whole entry V600E): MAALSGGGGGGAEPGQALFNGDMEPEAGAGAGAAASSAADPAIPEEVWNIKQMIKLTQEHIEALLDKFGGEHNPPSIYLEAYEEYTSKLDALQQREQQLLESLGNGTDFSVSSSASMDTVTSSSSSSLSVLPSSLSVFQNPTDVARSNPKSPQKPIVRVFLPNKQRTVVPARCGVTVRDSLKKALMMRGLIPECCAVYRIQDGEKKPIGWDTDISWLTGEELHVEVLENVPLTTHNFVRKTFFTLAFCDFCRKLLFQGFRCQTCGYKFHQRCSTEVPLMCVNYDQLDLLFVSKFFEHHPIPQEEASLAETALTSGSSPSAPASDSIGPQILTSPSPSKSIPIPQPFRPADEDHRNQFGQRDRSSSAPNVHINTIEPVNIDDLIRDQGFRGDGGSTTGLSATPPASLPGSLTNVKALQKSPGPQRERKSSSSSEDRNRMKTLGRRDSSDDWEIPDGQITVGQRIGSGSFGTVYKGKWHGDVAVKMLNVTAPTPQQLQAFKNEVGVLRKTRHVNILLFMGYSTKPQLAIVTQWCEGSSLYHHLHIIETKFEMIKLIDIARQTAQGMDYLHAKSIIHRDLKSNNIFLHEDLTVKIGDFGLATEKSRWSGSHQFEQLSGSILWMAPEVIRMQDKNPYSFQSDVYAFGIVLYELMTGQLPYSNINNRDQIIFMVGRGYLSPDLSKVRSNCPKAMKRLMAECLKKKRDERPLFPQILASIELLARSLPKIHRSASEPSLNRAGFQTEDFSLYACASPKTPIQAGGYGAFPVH
# Protocol Details: BRAF^V600E enzymatic activity assay (LanthaScreen kinase assay kit, TR-FRET)
Reported Endpoint: IC50 (nM)

>>> meas_value("CCCS(=O)(=O)Nc1ccc(F)c(-c2cc3cnc(NC[C@H](C)NC(=O)OC)cc3cc2OC)c1F")
212

I: COc1cc2c(cnc3[nH]ncc32)cc1-c1c(F)ccc(NS(=O)(=O)CCCF)c1F
II: CCCS(=O)(=O)Nc1ccc(F)c(-c2cc3cnc(NC[C@H](C)NC(=O)OC)cc3cc2OCCF)c1F
III: CCCS(=O)(=O)Nc1ccc(F)c(-c2cc3cnc4[nH]ncc4c3cc2OC)c1Cl
IV: CCCS(=O)(=O)Nc1ccc(F)c(-c2ccc3c(cnc4[nH]ccc43)c2)c1F
V: CCCS(=O)(=O)Nc1ccc(F)c(-c2ccc3c(cnc4[nH]nc(C5CC5)c43)c2)c1Cl
Prompt: Order the 5 compounds from highest to lowest IC50. Output spec: labels arranged per the requested ranking.
Completion: IV, II, I, V, III
(IV: 690 nM, II: 100 nM, I: 70 nM, V: 20 nM, III: 10 nM)

* * *

# Target Under Test: BRAF^V600E (Homo sapiens, UniProt P15056, V600E)
# Protocol Details: BRAF^V600E enzymatic activity assay (LanthaScreen kinase assay kit, TR-FRET)
Reported Endpoint: IC50 (nM)

As a guide, the following entries are already answered.
>>> meas_value("CCCS(=O)(=O)Nc1ccc(Cl)c(-c2ccc3c(cnc4[nH]ncc43)c2)c1Cl")
41.3
>>> meas_value("CCCS(=O)(=O)Nc1ccc(F)c(-c2cc3cnc4[nH]ncc4c3cc2OC)c1F")
60
>>> meas_value("CCCS(=O)(=O)Nc1ccc(Cl)c(-c2ccc3c(cnc4[nH]ncc43)c2)c1F")
118
>>> meas_value("COc1cc2c(cnc3[nH]ncc32)cc1-c1c(F)ccc(NS(=O)(=O)CCCF)c1Cl")
12
>>> meas_value("O=S(=O)(CCCF)Nc1ccc(F)c(-c2ccc3c(cnc4[nH]ncc43)c2)c1F")
50

1: COc1cc2c(cnc3[nH]nc(C4CC4)c32)cc1-c1c(F)ccc(NS(=O)(=O)CCCF)c1F
2: CCCS(=O)(=O)Nc1ccc(F)c(-c2ccc3c(cnc4[nH]ncc43)c2)c1F
3: CCCS(=O)(=O)Nc1ccc(F)c(-c2cc3cnc(N)cc3cc2OC)c1F
Prompt: Put the compounds in ascending order of IC50. Output spec: labels arranged per the requested ranking.
Completion: 1, 2, 3

* * *

# Target Under Test: BRAF^V600E (Homo sapiens, UniProt P15056, V600E)
# Protocol Details: BRAF^V600E enzymatic activity assay (LanthaScreen kinase assay kit, TR-FRET)
Reported Endpoint: IC50 (nM)

As a guide, the following entries are already answered.
>>> meas_value("O=S1(=O)CCCN1c1ccc(F)c(-c2ccc3c(cnc4[nH]ncc43)c2)c1F [Example 18]")
3740
>>> meas_value("CCCS(=O)(=O)Nc1ccc(F)c(-c2ccc3c(cnc4[nH]ncc43)c2)c1Cl [Example 11]")
18.3
>>> meas_value("O=S(=O)(CCCF)Nc1ccc(F)c(-c2ccc3c(cnc4[nH]ncc43)c2)c1Cl [Example 15]")
6.6
>>> meas_value("CCCS(=O)(=O)Nc1ccc(F)c(-c2ccc3c(cnc4[nH]cnc43)c2)c1F [Example 28]")
389
>>> meas_value("CCCS(=O)(=O)Nc1ccc(F)c(-c2ccc3c(cnc4[nH]nc(C5CC5)c43)c2)c1F [Example 10]")
2710

I: CCCS(=O)(=O)Nc1ccc(F)c(-c2cc3cnc(NC[C@H](C)NC(=O)OC)cc3cc2CC)c1F [Example 7]
II: CCCS(=O)(=O)Nc1ccc(F)c(-c2cc3cnc(NC[C@@H](C)NC(=O)OC)cc3cc2OC)c1F [Example 5]
Prompt: Among I and II , whose measured IC50 is the smaller figure? Lab log: write the label of the selected item as the result.
Completion: I
(I: 560 nM, II: 3660 nM)
